These entries and their values trace back to the NIST ThermoML archive (doi:10.1016/j.jct.2019.04.018).

# PROTOCOL CONDITIONS: 303.15 K; 100 kPa; Liquid; Vibrating tube method
MEASUREMENT KIND: mass density (kg/m3)

MOLECULE	UNITS TEXT	VALUE REPORTED
C=COC(C)=O [vinyl acetate]	kg/m3	919.4
COc1ccccc1 [anisole]	kg/m3	984.4
C=COCCCC [1-(ethenyloxy)butane]	kg/m3	769
CC(C)OC(C)C [diisopropyl ether]	kg/m3	713.1

----------
Overview of recorded speed of sound for various molecules
# PROTOCOL CONDITIONS: 303.15 K; 100 kPa; Liquid; Frequency=2 MHz; Single path-length method

MOLECULE	speed of sound, m/s
COc1ccccc1 [anisole]	1386
CC(C)OC(C)C [diisopropyl ether]	982
C=COCCCC [1-(ethenyloxy)butane]	1086
C=COC(C)=O [vinyl acetate]	1092

----------
# PROTOCOL CONDITIONS: 308.15 K; 100 kPa; Liquid; Capillary tube (Ostwald / Ubbelohde) method
Overview of recorded viscosity for various compounds

COMPOUND	viscosity (mPa·s)
COc1ccccc1	0.849
CC(C)OC(C)C	0.287
C=COCCCC [1-(ethenyloxy)butane]	0.373
C=COC(C)=O [vinyl acetate]	0.37

----------
Overview of recorded viscosity for various molecules
# PROTOCOL CONDITIONS: 303.15 K; 100 kPa; Liquid; Capillary tube (Ostwald / Ubbelohde) method
± gives the expanded uncertainty stated by the source.
MEASUREMENT KIND: viscosity

MOLECULE	VALUE REPORTED
COc1ccccc1 [anisole]	0.929 ± 0.015 mPa·s
C=COC(C)=O [vinyl acetate]	0.388 ± 0.014 mPa·s
C=COCCCC [1-(ethenyloxy)butane]	0.386 ± 0.015 mPa·s
CC(C)OC(C)C [diisopropyl ether]	0.301 ± 0.014 mPa·s

----------
# PROTOCOL CONDITIONS: 313.15 K; 100 kPa; Liquid; Vibrating tube method
Numbers after ± are expanded uncertainties.
MEASUREMENT KIND: mass density

COMPOUND	MEASUREMENT KIND	VALUE REPORTED
C=COC(C)=O [vinyl acetate]	mass density	907.3 ± 1.1 kg/m3
CC(C)OC(C)C	mass density	702.5 ± 1.2 kg/m3
C=COCCCC [1-(ethenyloxy)butane]	mass density	758.8 ± 1.2 kg/m3
COc1ccccc1	mass density	975 ± 1.1 kg/m3

----------
# PROTOCOL CONDITIONS: 308.15 K; 100 kPa; Liquid; Frequency=2 MHz; Single path-length method
Overview of recorded speed of sound for various compounds

COMPOUND	speed of sound [m/s]
CC(C)OC(C)C [diisopropyl ether]	962
COc1ccccc1 [anisole]	1366
C=COCCCC [1-(ethenyloxy)butane]	1076
C=COC(C)=O [vinyl acetate]	1074

----------
# PROTOCOL CONDITIONS: 313.15 K; 100 kPa; Liquid; Capillary tube (Ostwald / Ubbelohde) method
MEASUREMENT KIND: viscosity (mPa·s)

COMPOUND	VALUE REPORTED
C=COC(C)=O [vinyl acetate]	0.352
CC(C)OC(C)C	0.276
COc1ccccc1	0.788
C=COCCCC [1-(ethenyloxy)butane]	0.352

----------
Overview of recorded speed of sound for various molecules
# PROTOCOL CONDITIONS: 313.15 K; 100 kPa; Liquid; Frequency=2 MHz; Single path-length method

MOLECULE	speed of sound / m/s
C=COC(C)=O [vinyl acetate]	1054
COc1ccccc1	1348
C=COCCCC [1-(ethenyloxy)butane]	1066
CC(C)OC(C)C	942
